TARGET_OR_TEST_SYSTEM: human recombinant histamine H2 receptor (Homo sapiens, UniProt P25021)
Construct: expressed in transfected cells; host or cells: CHO-K1 cells
Sequence (P25021 whole entry): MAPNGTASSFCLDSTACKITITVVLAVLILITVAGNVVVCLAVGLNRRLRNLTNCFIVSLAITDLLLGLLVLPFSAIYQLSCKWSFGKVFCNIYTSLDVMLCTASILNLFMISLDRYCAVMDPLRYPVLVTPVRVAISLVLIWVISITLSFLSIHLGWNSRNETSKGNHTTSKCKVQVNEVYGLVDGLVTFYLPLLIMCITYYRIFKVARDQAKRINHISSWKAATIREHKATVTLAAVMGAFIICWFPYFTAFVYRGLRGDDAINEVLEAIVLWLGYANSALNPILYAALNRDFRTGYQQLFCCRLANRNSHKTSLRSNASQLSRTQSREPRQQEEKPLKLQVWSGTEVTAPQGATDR
PROTOCOL_DESCRIPTION: Histamine H2 radioligand binding ([125I]Aminopotentidine)
COND: compound at 1 μM; read-out: Histamine Binding (1 μM) H2, percent inhibition of specific binding
Label rule, in plain words: inhibition at 1 µM of 80% and up is t, under 80% is f.

The examples below pair each entry with its known result.
C/C(=C\n1c2c(c3cc(Cl)ccc31)CCN(C)CC2)c1ccc(Cl)cc1 | t
COc1ccc(/C=C/n2c3c(c4cc(Cl)ccc42)CCN(C)CC3)cc1 | t
C/C(=C\n1c2c(c3cc(C)ccc31)CCN(C)CC2)c1ccc(F)cc1 | t

Check this compound for inhibition at 1 µM at or above 80%: "CN1CCc2c(n(CCc3ccccn3)c3ccc(Cl)cc23)CC1"
f

---

TARGET_OR_TEST_SYSTEM: human recombinant adrenergic α2A receptor (Homo sapiens, UniProt P08913)
Construct: expressed in transfected cells; host or cells: insect Sf9 cells
Sequence (P08913 whole entry): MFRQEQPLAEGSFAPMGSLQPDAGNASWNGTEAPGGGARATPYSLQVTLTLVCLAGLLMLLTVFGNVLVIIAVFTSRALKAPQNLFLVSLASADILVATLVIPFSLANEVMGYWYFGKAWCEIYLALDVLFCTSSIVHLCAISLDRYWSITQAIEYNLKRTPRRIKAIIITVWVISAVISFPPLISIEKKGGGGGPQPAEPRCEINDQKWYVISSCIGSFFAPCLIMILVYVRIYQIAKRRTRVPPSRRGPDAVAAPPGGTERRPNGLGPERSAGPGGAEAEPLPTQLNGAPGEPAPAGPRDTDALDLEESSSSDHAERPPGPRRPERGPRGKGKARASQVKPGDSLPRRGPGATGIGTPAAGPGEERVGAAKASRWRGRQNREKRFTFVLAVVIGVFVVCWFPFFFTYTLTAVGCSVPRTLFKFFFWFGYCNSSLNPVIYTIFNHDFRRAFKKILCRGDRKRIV
PROTOCOL_DESCRIPTION: Adrenergic alpha2A radioligand binding ([3H]MK-912)
COND: compound at 1 μM; read-out: Adrenergic (1 μM) α2A, percent inhibition of specific binding
PROPERTY_LABEL: inhibition at 1 µM (%)
Form entry: value (%) — number only.

In the examples that follow, each entry is paired with its recorded inhibition at 1 µM.
Cc1ccc2c(c1)c1c(n2CCc2ccc(Cl)cc2)CCN(C)CC1 [Compound No. 28] | 96
Cc1ccc2c(c1)c1c(n2CCc2ccccc2F)CCN(C)CC1 [Compound No. 63] | 96
CN1CCc2c(n(CCc3ccccc3)c3ccc(Cl)cc23)CC1 [Compound No. 56] | 95
CN1CCc2c(n(/C=C/c3ccccc3)c3ccc(Cl)cc23)CC1 [Compound No. 228] | 102
COc1ccc(/C=C/n2c3c(c4cc(Cl)ccc42)CCN(C)CC3)cc1OC [Compound No. 226] | 93
COc1ccc(C(O)Cn2c3c(c4cc(C)ccc42)CCN(C)CC3)cc1OC (stereo not drawn) [Compound No. 227] | 70
C/C(=C\n1c2c(c3cc(Cl)ccc31)CCN(C)CC2)c1ccc(Cl)cc1Cl [Compound No. 239] | 93
Cc1ccc2c(c1)c1c(n2CC(=O)N(C)C2CCCCC2)CCN(C)CC1 [Compound No. 232] | 90
COc1ccc(C(O)Cn2c3c(c4cc(Cl)ccc42)CCN(C)CC3)cc1F (stereo not drawn) [Compound No. 67] | 102
CN1CCc2c(n(CC(=O)Nc3ccc(F)cc3)c3ccc(Cl)cc23)CC1 [Compound No. 37] | 68

Reported inhibition at 1 µM of CN1CCc2c(n(CC(C)(O)c3ccc(F)cc3)c3ccc(Cl)cc23)CC1 (stereo not drawn) [Compound No. 13] : 94

Reported inhibition at 1 µM of COc1ccc(/C=C/n2c3c(c4cc(C)ccc42)CCN(C)CC3)c(F)c1 [Compound No. 230] : 102

---

TARGET_OR_TEST_SYSTEM: human recombinant histamine H2 receptor (Homo sapiens, UniProt P25021)
Construct: expressed in transfected cells; host or cells: CHO-K1 cells
PROTOCOL_DESCRIPTION: Histamine H2 radioligand binding ([125I]Aminopotentidine)
COND: compound at 1 μM; read-out: Histamine Binding (1 μM) H2, percent inhibition of specific binding
Label rule, in plain words: inhibition at 1 µM of 90% and up is Fulfilled, under 90% is Not fulfilled.

The examples below pair each entry with its known result.
Cc1ccc2c(c1)c1c(n2CC(=O)N(C)C2CCCCC2)CCN(C)CC1 | Not fulfilled
COc1ccc(C(O)Cn2c3c(c4cc(C)ccc42)CCN(C)CC3)cc1F (stereo not drawn) | Not fulfilled
Cc1ccc2c(c1)c1c(n2C(=O)Cc2ccc(F)cc2)CCN(C)CC1 | Not fulfilled
CN1CCc2c(n(CC(O)c3ccccc3F)c3ccc(Cl)cc23)CC1 (stereo not drawn) | Not fulfilled
CN1CCc2c(n(CC(C)(O)c3ccc(Cl)cc3)c3ccc(Cl)cc23)CC1 (stereo not drawn) | Fulfilled
C/C(=C\n1c2c(c3cc(C)ccc31)CCN(C)CC2)c1ccccc1F | Fulfilled
CN1CCc2c(n(CC(O)c3ccc(F)cc3)c3ccc(Cl)cc23)CC1 (stereo not drawn) | Not fulfilled
C/C(=C\n1c2c(c3cc(Cl)ccc31)CCN(C)CC2)c1cccnc1 | Not fulfilled

Check this compound for inhibition at 1 µM at or above 90%: Cc1ccc2c(c1)c1c(n2CC(O)c2ccc(F)cc2)CCN(C)CC1 (stereo not drawn)
Not fulfilled

Check this compound for inhibition at 1 µM at or above 90%: "Cc1ccc2c(c1)c1c(n2/C=C/c2ccccc2)CCN(C)CC1"
Fulfilled
